Source: paper PMC12248229

# procedureSummary: in vivo
# Type: in vivo, Sprague-Dawley (SD) rats
# testParameters: Sprague-Dawley, rat, in vivo, po, […], AUC0–∞, rats, empagliflozin […] after sorafenib 100 mg/kg for 7 consecutive days, n = 6
valueKind: AUC(0-inf)
Your answer should be a number followed by the unit of measure.

Consider the molecule shown here: OC[C@H]1O[C@@H](c2ccc(Cl)c(Cc3ccc(O[C@H]4CCOC4)cc3)c2)[C@H](O)[C@@H](O)[C@@H]1O What is its recorded AUC(0-inf)?
0.586 µg·h/mL

###

# procedureSummary: in vivo
# Type: in vivo, Sprague-Dawley (SD) rats
# testParameters: Sprague-Dawley, rat, in vivo, po, […], t1/2, rats, empagliflozin […] oral, alone, n = 6
valueKind: half-life (h)
Numbers only, in h.

Consider the compound shown here: OC[C@H]1O[C@@H](c2ccc(Cl)c(Cc3ccc(O[C@H]4CCOC4)cc3)c2)[C@H](O)[C@@H](O)[C@@H]1O What is its recorded half-life?
5.03

###

# procedureSummary: in vivo
# Type: in vivo, Sprague-Dawley (SD) rats
# testParameters: Sprague-Dawley, rat, in vivo, po, 1 mg/kg, t1/2, rats, henagliflozin 1 mg/kg oral, alone, n = 6
valueKind: half-life (h)
Give bare numbers, in h.

Consider the compound shown here: CCOc1ccc(Cc2cc([C@@]34OC[C@@](CO)(O3)[C@@H](O)[C@H](O)[C@H]4O)ccc2Cl)cc1F What is its recorded half-life?
5.11

###

# Format: in vivo, Sprague-Dawley (SD) rats
# testParameters: Sprague-Dawley, rat, plasma, po, 100 mg/kg, AUC0–t, rats, sorafenib 100 mg/kg after henagliflozin 1 mg/kg for 7 consecutive days, n = 6
valueKind: AUC(0-t) (ng·h/mL)
Numbers only, in ng·h/mL.

Consider the compound shown here: CNC(=O)c1cc(Oc2ccc(NC(=O)Nc3ccc(Cl)c(C(F)(F)F)c3)cc2)ccn1 [Sorafenib] What is its recorded AUC(0-t)?
33500

###

# procedureSummary: in vivo
# Format: in vivo, Sprague-Dawley (SD) rats
# testParameters: Sprague-Dawley, rat, in vivo, po, […], t1/2, rats, empagliflozin […] after sorafenib 100 mg/kg for 7 consecutive days, n = 6
valueKind: half-life (h)
Give bare numbers, in h.

Consider the molecule shown here: OC[C@H]1O[C@@H](c2ccc(Cl)c(Cc3ccc(O[C@H]4CCOC4)cc3)c2)[C@H](O)[C@@H](O)[C@@H]1O What is its recorded half-life?
3.14

###

# Type: in vivo, Sprague-Dawley (SD) rats
# testParameters: Sprague-Dawley, rat, plasma, po, 100 mg/kg, AUC0–t, rats, sorafenib 100 mg/kg after empagliflozin […] for 7 consecutive days, n = 6
valueKind: AUC(0-t) (ng·h/mL)
Numbers only, in ng·h/mL.

Consider the compound shown here: CNC(=O)c1cc(Oc2ccc(NC(=O)Nc3ccc(Cl)c(C(F)(F)F)c3)cc2)ccn1 [Sorafenib] What is its recorded AUC(0-t)?
37000

###

# Type: in vivo, Sprague-Dawley (SD) rats
# testParameters: Sprague-Dawley, rat, plasma, po, 100 mg/kg, Cmax, rats, sorafenib 100 mg/kg by gavage, alone, n = 6
valueKind: Cmax (ng/mL)
One number for each entry, in ng/mL.

Consider the compound shown here: CNC(=O)c1cc(Oc2ccc(NC(=O)Nc3ccc(Cl)c(C(F)(F)F)c3)cc2)ccn1 What is its recorded Cmax?
967

###

# procedureSummary: in vivo
# Format: in vivo, Sprague-Dawley (SD) rats
# testParameters: Sprague-Dawley, rat, in vivo, po, […], Tmax, rats, empagliflozin […] oral, alone, n = 6
valueKind: Tmax
Your answer should be a number followed by the unit of measure.

Consider the molecule shown here: OC[C@H]1O[C@@H](c2ccc(Cl)c(Cc3ccc(O[C@H]4CCOC4)cc3)c2)[C@H](O)[C@@H](O)[C@@H]1O [Empagliflozin] What is its recorded Tmax?
16.8 min

###

# procedureSummary: in vivo
# Type: in vivo, Sprague-Dawley (SD) rats
# testParameters: Sprague-Dawley, rat, in vivo, po, 1 mg/kg, Tmax, rats, henagliflozin 1 mg/kg after sorafenib 100 mg/kg for 7 consecutive days, n = 6
valueKind: Tmax (h)
One number for each entry, in h.

Consider the molecule shown here: CCOc1ccc(Cc2cc([C@@]34OC[C@@](CO)(O3)[C@@H](O)[C@H](O)[C@H]4O)ccc2Cl)cc1F What is its recorded Tmax?
1.33

###

# procedureSummary: in vivo
# Format: in vivo, Sprague-Dawley (SD) rats
# testParameters: Sprague-Dawley, rat, in vivo, po, 1 mg/kg, MRT0–∞, rats, henagliflozin 1 mg/kg oral, alone, n = 6
valueKind: MRT inf

Consider the molecule shown here: CCOc1ccc(Cc2cc([C@@]34OC[C@@](CO)(O3)[C@@H](O)[C@H](O)[C@H]4O)ccc2Cl)cc1F [Henagliflozin] What is its recorded MRT inf?
8.49 h

###

# procedureSummary: in vivo
# Format: in vivo, Sprague-Dawley (SD) rats
# testParameters: Sprague-Dawley, rat, in vivo, po, 1 mg/kg, MRT0–∞, rats, henagliflozin 1 mg/kg after sorafenib 100 mg/kg for 7 consecutive days, n = 6
valueKind: MRT inf (h)
Numbers only, in h.

Consider the compound shown here: CCOc1ccc(Cc2cc([C@@]34OC[C@@](CO)(O3)[C@@H](O)[C@H](O)[C@H]4O)ccc2Cl)cc1F What is its recorded MRT inf?
9.49

###

# Type: in vivo, Sprague-Dawley (SD) rats
# testParameters: Sprague-Dawley, rat, plasma, po, 100 mg/kg, MRT0–∞, rats, sorafenib 100 mg/kg by gavage, alone, n = 6
valueKind: MRT inf (h)
One number for each entry, in h.

Consider the compound shown here: CNC(=O)c1cc(Oc2ccc(NC(=O)Nc3ccc(Cl)c(C(F)(F)F)c3)cc2)ccn1 [Sorafenib] What is its recorded MRT inf?
40.5

###

# procedureSummary: in vivo
# Assay type: in vivo, Sprague-Dawley (SD) rats
# testParameters: Sprague-Dawley, rat, in vivo, po, […], AUC0–t, rats, empagliflozin […] after sorafenib 100 mg/kg for 7 consecutive days, n = 6
valueKind: AUC(0-t) (ng·h/mL)
Give bare numbers, in ng·h/mL.

Consider the compound shown here: OC[C@H]1O[C@@H](c2ccc(Cl)c(Cc3ccc(O[C@H]4CCOC4)cc3)c2)[C@H](O)[C@@H](O)[C@@H]1O What is its recorded AUC(0-t)?
563

###

# procedureSummary: in vivo
# Format: in vivo, Sprague-Dawley (SD) rats
# testParameters: Sprague-Dawley, rat, in vivo, po, 1 mg/kg, Tmax, rats, henagliflozin 1 mg/kg oral, alone, n = 6
valueKind: Tmax (h)
Numbers only, in h.

Consider the compound shown here: CCOc1ccc(Cc2cc([C@@]34OC[C@@](CO)(O3)[C@@H](O)[C@H](O)[C@H]4O)ccc2Cl)cc1F What is its recorded Tmax?
3.25

###

# Format: in vivo, Sprague-Dawley (SD) rats
# testParameters: Sprague-Dawley, rat, plasma, po, 100 mg/kg, MRT0–t, rats, sorafenib 100 mg/kg after empagliflozin […] for 7 consecutive days, n = 6
valueKind: MRT last (h)
One number for each entry, in h.

Consider the compound shown here: CNC(=O)c1cc(Oc2ccc(NC(=O)Nc3ccc(Cl)c(C(F)(F)F)c3)cc2)ccn1 [Sorafenib] What is its recorded MRT last?
28.7

###

# Assay type: in vivo, Sprague-Dawley (SD) rats
# testParameters: Sprague-Dawley, rat, plasma, po, 100 mg/kg, t1/2, rats, sorafenib 100 mg/kg by gavage, alone, n = 6
valueKind: half-life (h)
Numbers only, in h.

Consider the molecule shown here: CNC(=O)c1cc(Oc2ccc(NC(=O)Nc3ccc(Cl)c(C(F)(F)F)c3)cc2)ccn1 What is its recorded half-life?
18.7
